Assay: TLR3 IRF3 reporter activation blockers – cell-based, poly I:C stimulus, luciferase, 10K MLSCN set, primary screen (AID 602277)
Settings: HEK293-TLR3 RL24 IRF3 luciferase reporter, at 10 µM, hits give high values
Decision: inhibition >= 10% yields 1, all other cases yield -1.

# molecule, label.class
measured = [
    ("Cc1ccc(Nc2nc(Oc3ccc(=O)[nH]n3)nc(N(C)C)n2)cc1", 1),
    ("CCn1c(CCC(=O)Nc2nc3c(s2)CCCC3)nc2cc(S(=O)(=O)N(C)C)ccc21", 1),
    ("O=S(=O)(NCc1ccco1)c1cccc2cccnc12", 1),
    ("CCOc1ccccc1C1CC(c2ccc(Br)cc2)Nc2nc(N)nn21 (stereo not drawn)", 1),
    ("CC(=O)c1cc2c(=O)c3cc(C)ccc3oc2nc1C", -1),
    ("O=C1c2ccccc2C(Nc2ccc3nc(-c4cccnc4)[nH]c3c2)N1Cc1ccco1 (stereo not drawn)", -1),
    ("CC(=O)N1CCc2cc(S(=O)(=O)NCCC(=O)Nc3cc(C)cc(C)c3)ccc21", 1),
    ("O=C(CSc1nnc(-c2cccnc2)o1)OC1CCCCC1", 1),
    ("O=C(CSCc1cccc(F)c1)N1CCN(c2ccccc2)CC1", -1),
    ("O=C(CSCc1n[nH]c(=O)[nH]1)NCCOc1cccc(Oc2ccccc2)c1", -1),
    ("Cc1cnc(-c2nnc(N(C)C(=O)C3CCOC3)s2)cn1 (stereo not drawn)", -1),
    ("COc1cccc(C2CC(c3ccccc3)n3ncnc3N2)c1 (stereo not drawn)", 1),
    ("Cc1cc2nc3c(nc2cc1C)C1(C(=O)O)CCC3(C)C1(C)C (stereo not drawn)", 1),
    ("O=C(Nc1ccc(SC(F)F)cc1)c1ccc2nccnc2c1", -1),
    ("CCC(=O)Nc1cc(Cl)ccc1N1CCN(C(=O)CC)CC1", 1),
    ("COC(=O)c1ccccc1NC(=O)C12CCC(C)(C(=O)O1)C2(C)C (stereo not drawn)", 1),
    ("Cn1c(=O)c2c(nc(NCCCO)n2Cc2cccc(Br)c2)n(C)c1=O", 1),
    ("O=C(Nc1ccccc1Cl)c1c(F)c(F)c(F)c(F)c1F", -1),
    ("O=C(c1ccc(=O)[nH]c1)N(Cc1ccco1)C1(C(=O)NC2CCCC2)CCCCC1", 1),
    ("CCCCc1nc2ccccc2n2cc3c(=O)n(C)c(=O)n(C)c3c12", 1),
    ("CCN(c1cccc(C)c1)S(=O)(=O)c1ccc2[nH]c(=O)c(=O)[nH]c2c1", 1),
    ("CCn1c(SCC(=O)Nc2ccccc2N2CCCCC2)nc2c1c(=O)n(C)c(=O)n2C", 1),
    ("COc1ccc(C(C)NC(=O)c2ccoc2C)cc1OC (stereo not drawn)", 1),
]

###

Recorded inhibition of aggregation by entry
Assay: reduction of polyQ htt aggregates in cells – imaging, exon1htt(103Q)mCFP cells, high-content imaging, primary screen (AID 483);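 also: compound exposure lasted 3 days before fixation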
Details: exon1htt(103Q)mCFP cell line, aggregate imaging, at 2 µM; hits give high values
quantity.name: inhibition of aggregation (%)

# molecule, quantity.name, observed
measured = [
    ("Cc1ccc(-c2nnnn2CS(=O)(=O)c2ccccc2)cc1", "inhibition of aggregation", -9.7),
    ("CCOc1ccc(Cn2nnc(C(=O)Nc3ccc(OC)cc3OC)c2N)cc1", "inhibition of aggregation", 7.2),
    ("O=C(Nc1ccon1)c1cc(-c2ccccc2)nc2ccccc12", "inhibition of aggregation", 22.5),
    ("c1ccc(CCc2nn3c(Cn4cnc5ccccc54)nnc3s2)cc1", "inhibition of aggregation", -18),
    ("c1ccc(CSCc2cn3ccsc3n2)cc1", "inhibition of aggregation", 5.1),
    ("COc1ccccc1C(=O)N1CCNC(=O)C1CC(=O)Nc1ccc(Cl)cc1 (stereo unspecified)", "inhibition of aggregation", 9.7),
    ("COC(=O)c1[nH]c2ccc(C)cc2c1NC(=O)CN1CCN(C(=O)c2ccccc2)CC1", "inhibition of aggregation", 3),
    ("Cc1nc2ccccc2nc1OCC(=O)Nc1cc(C(F)(F)F)ccc1N1CCOCC1", "inhibition of aggregation", 19.2),
    ("O=C(CN1CCN(c2nc(-c3ccccc3)cs2)CC1)Nc1ccc2c(c1)OCO2", "inhibition of aggregation", -0.3),
    ("CN(C)c1ccc(NC(=O)Nc2cccc(Cl)c2)cc1", "inhibition of aggregation", 1.1),
    ("Clc1ccccc1OCCCCn1ccnc1", "inhibition of aggregation", -10.9),
]

src = PubChem BioAssay
